- Test system: P388 leukemia ip, CD2F1 mice, survival T/C
- Experimental details: NCI In Vivo Anticancer Drug Screen. Data for tumor model P388 Leukemia (intraperitoneal) in CD2F1 (CDF1) mice
- Experimental conditions: endpoint: median survival time; dose: 50.0 mg/kg/injection; schedule: Q01DX009 (ip); vehicle: other; higher = longer survival
Inconclusive results and toxic doses are left out.
Property label: T/C

INSERT INTO results (compound, system_tested, measurement) VALUES
  ('Cc1c(Cl)cc[n+]([O-])c1C', 'P388 leukemia ip, CD2F1 mice, survival T/C', '108 % of control'),
  ('Cn1nc2c(c1-c1cccnc1)CCCc1ccccc1-2', 'P388 leukemia ip, CD2F1 mice, survival T/C', '110 % of control'),
  ('Cc1nc(C(=O)O)cc([N+](=O)[O-])c1C', 'P388 leukemia ip, CD2F1 mice, survival T/C', '97 % of control'),
  ('CCCNC(C)(C)C(SS)c1ccc(C(F)(F)F)cc1 (stereo not given)', 'P388 leukemia ip, CD2F1 mice, survival T/C', '109 % of control'),
  ('ClCSCc1ccccc1', 'P388 leukemia ip, CD2F1 mice, survival T/C', '110 % of control'),
  ('Cc1nc(O)c([N+](=O)[O-])c(=O)[nH]1', 'P388 leukemia ip, CD2F1 mice, survival T/C', '98 % of control'),
  ('COc1ccc2ccccc2c1C(=O)CCCc1ccccc1', 'P388 leukemia ip, CD2F1 mice, survival T/C', '98 % of control'),
  ('Cc1ccc(S(=O)(=O)N/N=C/C(N)=O)cc1', 'P388 leukemia ip, CD2F1 mice, survival T/C', '96 % of control'),
  ('O=C(NC(CCS(=O)(=O)NO)C(=O)OCc1ccccc1)OCc1ccccc1 (stereo not given)', 'P388 leukemia ip, CD2F1 mice, survival T/C', '109 % of control'),
  ('COc1ccc(C(=O)OC2(C)CC(C)(C)N=N2)cc1 (stereo not given)', 'P388 leukemia ip, CD2F1 mice, survival T/C', '108 % of control');

----------
T/C for assorted molecules
- Tested on: P388 leukemia ip, CD2F1 mice, survival T/C
- Experimental details: NCI In Vivo Anticancer Drug Screen. Data for tumor model P388 Leukemia (intraperitoneal) in CD2F1 (CDF1) mice
- Experimental conditions: endpoint: median survival time; dose: 120.0 mg/kg/injection; schedule: Q01DX005 (ip); vehicle: saline; higher = longer survival
Inconclusive results and toxic doses are left out.
Property label: T/C

INSERT INTO measurements (molecule, system_tested, measurement) VALUES
  ('O=C1C[C@@H]2OC3=C(C(=O)CCC3)[C@@H]2O1', 'P388 leukemia ip, CD2F1 mice, survival T/C', '121 % of control'),
  ('C=CCOc1cc2c(cc1Cc1cc(OC)c(OC)c(OC)c1)OCO2', 'P388 leukemia ip, CD2F1 mice, survival T/C', '99 % of control'),
  ('O=P(O)(O)c1ccccc1P(=O)(O)O', 'P388 leukemia ip, CD2F1 mice, survival T/C', '93 % of control'),
  ('CC(C)=NNC1=NC(C)(C)P(=O)(N2CCCC2C(=O)O)S1 (stereo unspecified)', 'P388 leukemia ip, CD2F1 mice, survival T/C', '104 % of control'),
  ('c1ccc(CCNCCN2CCNCC2)cc1', 'P388 leukemia ip, CD2F1 mice, survival T/C', '99 % of control'),
  ('CCN(CCO)CC(O)Cn1cnc2c(N)ncnc21 (stereo unspecified) (tested in a mixture with another compound)', 'P388 leukemia ip, CD2F1 mice, survival T/C', '100 % of control');

----------
- System: P388 leukemia ip, CD2F1 mice, survival T/C
- Experimental details: NCI In Vivo Anticancer Drug Screen. Data for tumor model P388 Leukemia (intraperitoneal) in CD2F1 (CDF1) mice
- Experimental conditions: endpoint: median survival time; dose: 200.0 mg/kg/injection; schedule: Q04DX002 (ip); vehicle: saline; higher = longer survival
Toxic doses and inconclusive results are not listed.
T/C for assorted compounds
Property label: T/C

INSERT INTO measurements (compound, measurement) VALUES
  ('CN(C)c1ccc(C2OC2C(=O)n2ccc(=O)n(C(=O)C3OC3c3ccc(N(C)C)cc3)c2=O)cc1 (centres undefined)', '100 % of control'),
  ('CCOC(=O)C1C(=O)NN(/C=C2\C=CC=CC2=O)C1c1ccc([N+](=O)[O-])cc1 (centres undefined)', '93 % of control'),
  ('CCOc1cnco1', '100 % of control'),
  ('Cc1ccc(S(=O)(=O)C(Br)CC(=O)c2ccccc2)cc1 (centres undefined)', '101 % of control');

----------
- Tested on: P388 leukemia ip, CD2F1 mice, survival T/C
- Experimental details: NCI In Vivo Anticancer Drug Screen. Data for tumor model P388 Leukemia (intraperitoneal) in CD2F1 (CDF1) mice
- Experimental conditions: endpoint: median survival time; dose: 120.0 mg/kg/injection; schedule: Q01DX005 (ip); vehicle: Klucel (hydroxypropylcellulose) (HPC); higher = longer survival
Inconclusive results and toxic doses are left out. Peptide text beside a SMILES is read from it. * marks the point of attachment. Trt = c1ccc(C(c2ccccc2)(c2ccccc2)*)cc1; Cbz = O=C(OCc1ccccc1)*; OtBu = CC(C)(C)O*
Property label: T/C

INSERT INTO measurements (molecule, system_tested, property_label, measurement) VALUES
  ('CS(=O)(=O)N1OC1c1ccccc1 (stereo not drawn)', 'P388 leukemia ip, CD2F1 mice, survival T/C', 'T/C', '100 % of control'),
  ('CC(=O)c1cc2cc3c4c(c2oc1=O)CCCN4CCC3', 'P388 leukemia ip, CD2F1 mice, survival T/C', 'T/C', '112 % of control'),
  ('CC[N+](CC)=c1ccc2nc3c(cc(Nc4ccccc4)c4ccccc43)oc-2c1.[Cl][Zn][Cl]', 'P388 leukemia ip, CD2F1 mice, survival T/C', 'T/C', '107 % of control'),
  ('Oc1cccnc1[Se]', 'P388 leukemia ip, CD2F1 mice, survival T/C', 'T/C', '106 % of control'),
  ('CN(NC1OC(=O)c2ccccc21)c1ccc(C(F)(F)F)cc1[N+](=O)[O-] (stereo not drawn)', 'P388 leukemia ip, CD2F1 mice, survival T/C', 'T/C', '98 % of control'),
  ('CCCNN1CCN(c2ccncc2S(=O)(=O)N2CCCCC2)CC1', 'P388 leukemia ip, CD2F1 mice, survival T/C', 'T/C', '99 % of control'),
  ('O=c1oc2ccccc2c2c1SC(c1ccncc1)C2 (stereo not drawn)', 'P388 leukemia ip, CD2F1 mice, survival T/C', 'T/C', '88 % of control'),
  ('c1ccc(CC(Nc2cccnc2)c2ccccc2)cc1 (stereo not drawn)', 'P388 leukemia ip, CD2F1 mice, survival T/C', 'T/C', '104 % of control'),
  ('Oc1ccc(C(c2cc3c(cc2O)OCO3)N2CCN(C(c3ccc(O)cc3)c3cc4c(cc3O)OCO4)CC2)cc1 (stereo not drawn)', 'P388 leukemia ip, CD2F1 mice, survival T/C', 'T/C', '103 % of control'),
  ('CC(C)CC1N=C(NN=C2CCCCC2)SP1(=O)NNc1ncccn1 (stereo not drawn)', 'P388 leukemia ip, CD2F1 mice, survival T/C', 'T/C', '97 % of control'),
  ('O=c1ccc(OS(=O)(=O)c2ccccc2)n[nH]1', 'P388 leukemia ip, CD2F1 mice, survival T/C', 'T/C', '90 % of control'),
  ('CS(=O)(=O)/N=C/N(CCc1ccccc1)c1ccccc1', 'P388 leukemia ip, CD2F1 mice, survival T/C', 'T/C', '99 % of control'),
  ('Nc1n[nH]c(CCCCc2nc(N)n[nH]2)n1', 'P388 leukemia ip, CD2F1 mice, survival T/C', 'T/C', '99 % of control'),
  ('CCOC(=O)c1cnc2cc(F)ccc2c1Nc1ccc2c(c1)OCO2', 'P388 leukemia ip, CD2F1 mice, survival T/C', 'T/C', '97 % of control'),
  ('O=c1oc(NC2CCCCC2)nc2ccccc12', 'P388 leukemia ip, CD2F1 mice, survival T/C', 'T/C', '92 % of control'),
  ('O=C1C(Br)=C(c2ccccc2)S(=O)(=O)c2ccccc21', 'P388 leukemia ip, CD2F1 mice, survival T/C', 'T/C', '114 % of control'),
  ('O=C1C(O)=C(O)C(=O)c2cc3c(cc21)OCO3', 'P388 leukemia ip, CD2F1 mice, survival T/C', 'T/C', '102 % of control'),
  ('CC1(C)C2=CC3(C)N(CN2c2ccccc21)c1ccccc1C3(C)C (stereo not drawn)', 'P388 leukemia ip, CD2F1 mice, survival T/C', 'T/C', '95 % of control'),
  ('CC(C)CC(NC(=O)C(CSC(c1ccccc1)(c1ccccc1)c1ccccc1)NC(=O)OCc1ccccc1)C(=O)NC(C(=O)OC(C)(C)C)C(C)C (stereo not drawn) (Cbz-Cys(Trt)-Leu-Val-OtBu; configuration not given here)', 'P388 leukemia ip, CD2F1 mice, survival T/C', 'T/C', '100 % of control'),
  ('COc1ccccc1-n1cccc(C#N)c1=S', 'P388 leukemia ip, CD2F1 mice, survival T/C', 'T/C', '91 % of control'),
  ('COC(=O)N1Cc2cc3ccccc3nc2C1C (stereo not drawn)', 'P388 leukemia ip, CD2F1 mice, survival T/C', 'T/C', '104 % of control'),
  ('COc1cc([Se]c2ccccc2)ccc1N(C)C', 'P388 leukemia ip, CD2F1 mice, survival T/C', 'T/C', '100 % of control'),
  ('O=C(NC(CO)C(=O)OCc1ccccc1)OCCc1ccccn1 (stereo not drawn)', 'P388 leukemia ip, CD2F1 mice, survival T/C', 'T/C', '96 % of control');
